Reference source: the supplement of paper PMC11451515

test system: NOMO1; test: cell viability relative to DMSO control; higher = less cytotoxic; conditions: HPLM + 10% dialyzed FBS; 48 h; 46.1 µM
metric: cell viability (%)
Hi! Could you send only the number? It should be in %, unit omitted.

Some molecules with recorded cell viability:
molecule	numeric.value
N[S+](=O)([O-])c1ccc(Nc2nc(OCC3CCCCC3)c3[nH]cnc3n2)cc1	42.9
c1cc(-c2cnn3cc(-c4ccc(OCCN5CCCCC5)cc4)cnc23)ccn1	30.5
CCC(CCCC)COC(=O)C(\C#N)=C(\c1ccccc1)c2ccccc2 (stereo unspecified)	107
COc1ccccc1[C@H](c1cccc2ccccc12)[C@@](C)(C#N)C(=O)N1CCC(c2cccc(C(F)(F)F)c2)CC1	39.9
O=C(O)c1ccc(O)c2ncc(N3CCOCC3)cc12	18.9

Lab note: next molecule to report on.
Give the measured cell viability of CN1C(=O)c2sccc2N(C)c2nc(Nc3ccc([S+](N)(=O)[O-])cc3)ncc21 . 8.75

* * *

tested on: P12-Ichikawa; test: cell viability relative to DMSO control; higher = less cytotoxic; conditions: HPLM + 10% dialyzed FBS; 48 h; 0.00234 µM
metric: cell viability

given.smiles	target.under.test	result
Oc1ccc(OCc2ccccc2)cc1	P12-Ichikawa	114%
CC1(C)SCCN([S+](=O)([O-])c2ccc(OCC#CCO)cc2)[C@H]1C(=O)NO	P12-Ichikawa	108%
C[C@]12CC[C@H]3[C@@H](CC(=C)\C4=C\C(=O)\C=C/[C@]34C)[C@@H]1CCC2=O	P12-Ichikawa	107%
Nc1n[nH]c2nnc(-c3c(-c4ccccc4)nn4ccccc34)cc12	P12-Ichikawa	117%

We now examine a further molecule.
Which value of cell viability has been reported for C=CC(=O)Nc1cccc(Sc2nc(Nc3ccc(N4CCN(C)CC4)cc3)ncc2Cl)c1 in the records? 108%

* * *

system: NOMO1; test: cell viability relative to DMSO control; higher = less cytotoxic; settings: RPMI 5 mM glucose + 10% FBS; 48 h; 0.00234 µM
metric: cell viability (%)
Return type: number; implicit unit %.

# count of solved cases: 3
compound	numeric.value
COc1ccccc1[C@H](c1cccc2ccccc12)[C@@](C)(C#N)C(=O)N1CCC(c2cccc(C(F)(F)F)c2)CC1	96
Cc1cn2cc(C(=O)N(C)CCO)cc(N[C@@H]3CCOc4cccc(C)c43)c2n1	108
CCCCc1ccc2[nH]c(NC(=O)OC)nc2c1	109

Could you tell me which cell viability is on file for NCCCC(N)(C(=O)O)C(F)F (centres undefined) ? 137

* * *

test system: P12-Ichikawa; test: cell viability relative to DMSO control; higher = less cytotoxic; settings: HPLM + 10% dialyzed FBS; 48 h; 0.569 µM
Listed here are compounds together with their documented cell viability.
Only the number, expressed in %, is required.

compound	cell viability / %
CC1(C)CC\C2=C(/O1)C3=C(C=CC=C3)C(=O)C2=O	110
COc1ccccc1[C@H](c1cccc2ccccc12)[C@@](C)(C#N)C(=O)N1CCC(c2cccc(C(F)(F)F)c2)CC1	107
CO[C@H]1CCC(O[C@H]2C[C@H]([C@]3(C)CC[C@]4(C[C@H](O)[C@@H](C)[C@@H]([C@@H](C)/C=C(\C)C(=O)[C@H](C)C[C@H](C)C(=O)[O-])O4)O3)O[C@]3(O[C@@H]([C@H]4O[C@@](O)(CO)[C@H](C)C[C@@H]4C)C[C@@H]3C)[C@@H]2C)O[C@@H]1C (some centres not stated)	87.3
NCCCC(N)(C(=O)O)C(F)F (configuration not stated)	113

# lookup: cell viability of CO[C@@H](C(=O)N1Cc2[nH]nc(NC(=O)c3ccc(N4CCN(C)CC4)cc3)c2C1)c1ccccc1 15

* * *

tested on: SEM cells; test: cell viability relative to DMSO control; higher = less cytotoxic; conditions: RPMI 5 mM glucose + 10% FBS; 48 h; 5.12 µM
metric: cell viability (%)
Write the number in % without appending the unit.

# annotated cases, reported cell viability shown
given.smiles	target.under.test	metric	numeric.value
COc1cc(C(=O)NC2CCN(C)CC2)ccc1Nc1ncc2c(n1)N(C1CCCC1)CCC(=O)N2C(C)C	SEM cells	cell viability	96.5
CC(C)(N)c1ccc(-c2nc3ccccc3nc2-c2ccccc2)cc1	SEM cells	cell viability	4.24

Okay, now this molecule:
Item Oc1ccc(OCc2ccccc2)cc1 has what recorded cell viability? 77.6

* * *

system: SEM cells; test: cell viability relative to DMSO control; higher = less cytotoxic; conditions: RPMI 5 mM glucose + 10% FBS; 48 h; 0.00234 µM
Below, each of the compounds is paired with its reported cell viability value.
Give the value, in units of %, as a plain number.

Known cell viability results, listed for orientation:
compound	target.under.test	metric	u	numeric.value
O=C1NC(=O)/C(=C/c2ccc3nccnc3c2)S1	SEM cells	cell viability	%	136
C[S+](=O)([O-])Oc1ccc2c(NC(N)=O)c(C(=O)c3ccc(Cl)cc3Cl)oc2c1	SEM cells	cell viability	%	95.9
C[C@H](NC(=O)Cc1cc(F)cc(F)c1)C(=O)N[C@H](C(=O)OC(C)(C)C)c1ccccc1	SEM cells	cell viability	%	92.3

Please provide the recorded cell viability for CCOC(=O)N1CCN(/[N+]([O-])=N/Oc2cc(O/N=[N+](\[O-])N3CCN(C(=O)OCC)CC3)c([N+](=O)[O-])cc2[N+](=O)[O-])CC1 , tested on SEM cells. 110

Try the compound O=C(CN1C(=O)C2(CCCC2)NC[C@H]1c1cc(F)cc(F)c1)Nc1ccc2c(c1)C[C@@]1(C2)C(=O)Nc2ncccc21 104

Entry c1cc(-c2cnn3cc(-c4ccc(OCCN5CCCCC5)cc4)cnc23)ccn1 please 76.7

Would you kindly repeat that for CC(C(C)N1CC(=O)NC(=O)C1)N1CC(=O)NC(=O)C1 (configuration not stated) ? 79.9

* * *

tested on: NOMO1; assay: cell viability relative to DMSO control; higher = less cytotoxic; conditions: RPMI 5 mM glucose + 10% FBS; 48 h; 5.12 µM
So basically, if cell viability comes in under 90% it's True, and if it's 90% or more it's False.

Solved cases below.
compound	target.under.test	class.name
Nc1nc(F)nc2c1ncn2[C@@H]1O[C@H](COP(=O)(O)O)[C@@H](O)[C@@H]1O	NOMO1	False
COc1ccc(F)c(F)c1C(=O)c1cnc(NC2CCN([S+](C)(=O)[O-])CC2)nc1N	NOMO1	True
CC(=O)N(C)C1(c2ccccc2)CCN(CCC[C@]2(c3ccc(Cl)c(Cl)c3)CCCN(C(=O)c3ccccc3)C2)CC1	NOMO1	True
CCN(CC)CCNC(=O)c1c(C)[nH]c(/C=C2\C(=O)Nc3ccc(F)cc32)c1C	NOMO1	True
CCn1nnc2c(N3CCOCC3)nc(-c3ccc(NC(=O)Nc4ccc(C(=O)N5CCN(C)CC5)cc4)cc3)nc21	NOMO1	True

Please determine if CC1(C)SCCN([S+](=O)([O-])c2ccc(OCC#CCO)cc2)[C@H]1C(=O)NO is below 90% in terms of cell viability. True

Now the same for NC1=NC(=O)N2CC12 (configuration not stated) True

Next: CNc1nc(-c2ccc3c(N)n[nH]c3c2)cc(N2C[C@@H](C(=O)NC3CCCCC3)CC[C@H]2C)n1 True

Here is the next compound: CC(C)C1CCC(C(=O)N[C@H](Cc2ccccc2)C(=O)O)CC1 (some centres not stated) True

Then this compound: CC(C)(N)c1ccc(-c2nc3ccccc3nc2-c2ccccc2)cc1 True

Same question, C[C@H](CCC(=O)O)[C@H]1CC[C@H]2[C@@H]3[C@H](O)C[C@@H]4C[C@H](O)CC[C@]4(C)[C@H]3CC[C@]12C this time False

Same question, O=C1NC(=O)/C(=C/c2ccc3nccnc3c2)S1 this time False

Another compound: c1cc(-c2cnn3cc(-c4ccc(OCCN5CCCCC5)cc4)cnc23)ccn1 True

Can you handle Cc1nc(-c2ccc(OCC(C)C)c(C#N)c2)sc1C(=O)O next? False

Now the compound N[S+](=O)([O-])c1ccc(Nc2nc(OCC3CCCCC3)c3[nH]cnc3n2)cc1 True

Let us now turn to CC(C)(N)C(=O)N[C@H](COCc1ccccc1)C(=O)N1CCC2(CC1)CN([S+](C)(=O)[O-])c1ccccc12 False

* * *

system: SEM cells; experiment: cell viability relative to DMSO control; higher = less cytotoxic; conditions: RPMI 5 mM glucose + 10% dialyzed FBS; 48 h; 0.00234 µM
metric: cell viability (%)
Respond numerically; units are % and should not be typed.

Example results:
compound	cell viability, %
CC(C(C)N1CC(=O)NC(=O)C1)N1CC(=O)NC(=O)C1 (configuration not stated)	93.3
C/C1=C2/[N]3[Co+]456([OH])<-[N]7=C1[C@@H](CCC(N)=O)C(C)(C)/C7=C/C1=[N]->4C(=C(/C)C4=[N]->5[C@@](C)([C@H]3[C@H](CC(N)=O)[C@@]2(C)CCC(=O)NC[C@@H](C)OP(=O)([O-])O[C@H]2[C@@H](O)[C@@H](n3c[n]->6c5cc(C)c(C)cc53)O[C@@H]2CO)[C@@](C)(CC(N)=O)[C@@H]4CCC(N)=O)/[C@@](C)(CC(N)=O)[C@@H]1CCC(N)=O	96.6
CCC(C)CCCCC(=O)N[C@@H](CCN)C(=O)NC(C(=O)N[C@H](CCN)C(=O)N[C@@H]1CCNC(=O)C([C@@H](C)O)NC(=O)[C@@H](CCN)NC(=O)[C@@H](CCN)NC(=O)[C@@H](CC(C)C)NC(=O)[C@H](Cc2ccccc2)NC(=O)[C@H](CCN)NC1=O)[C@@H](C)O (some centres not stated)	90.9
CC1(C)CC\C2=C(/O1)C3=C(C=CC=C3)C(=O)C2=O	121
C[C@]12CC[C@H]3[C@@H](CC(=C)\C4=C\C(=O)\C=C/[C@]34C)[C@@H]1CCC2=O	86.9
C[C@@H]1CC[C@@]2(CC[C@]3(C)\C(=C/C[C@@H]4[C@@]5(C)CC[C@H](O)C(C)(C)[C@@H]5CC[C@@]34C)[C@@H]2[C@H]1C)C(O)=O	116

Provide value of cell viability for this record tested with SEM cells: COc1cc(NCc2ccc3nc(N)nc(N)c3c2C)cc(OC)c1OC 89.3
